biological target: T1, human C-MET on stably transfected CHO-K1 cells (human, UniProt P08581 25-1390); assay: flow cytometry, C-MET CHO-K1 cells
T1 construct: also called hucMET; human C-MET+ CHO-K1 cells
T1 sequence (P08581 25-1390 limits assumed): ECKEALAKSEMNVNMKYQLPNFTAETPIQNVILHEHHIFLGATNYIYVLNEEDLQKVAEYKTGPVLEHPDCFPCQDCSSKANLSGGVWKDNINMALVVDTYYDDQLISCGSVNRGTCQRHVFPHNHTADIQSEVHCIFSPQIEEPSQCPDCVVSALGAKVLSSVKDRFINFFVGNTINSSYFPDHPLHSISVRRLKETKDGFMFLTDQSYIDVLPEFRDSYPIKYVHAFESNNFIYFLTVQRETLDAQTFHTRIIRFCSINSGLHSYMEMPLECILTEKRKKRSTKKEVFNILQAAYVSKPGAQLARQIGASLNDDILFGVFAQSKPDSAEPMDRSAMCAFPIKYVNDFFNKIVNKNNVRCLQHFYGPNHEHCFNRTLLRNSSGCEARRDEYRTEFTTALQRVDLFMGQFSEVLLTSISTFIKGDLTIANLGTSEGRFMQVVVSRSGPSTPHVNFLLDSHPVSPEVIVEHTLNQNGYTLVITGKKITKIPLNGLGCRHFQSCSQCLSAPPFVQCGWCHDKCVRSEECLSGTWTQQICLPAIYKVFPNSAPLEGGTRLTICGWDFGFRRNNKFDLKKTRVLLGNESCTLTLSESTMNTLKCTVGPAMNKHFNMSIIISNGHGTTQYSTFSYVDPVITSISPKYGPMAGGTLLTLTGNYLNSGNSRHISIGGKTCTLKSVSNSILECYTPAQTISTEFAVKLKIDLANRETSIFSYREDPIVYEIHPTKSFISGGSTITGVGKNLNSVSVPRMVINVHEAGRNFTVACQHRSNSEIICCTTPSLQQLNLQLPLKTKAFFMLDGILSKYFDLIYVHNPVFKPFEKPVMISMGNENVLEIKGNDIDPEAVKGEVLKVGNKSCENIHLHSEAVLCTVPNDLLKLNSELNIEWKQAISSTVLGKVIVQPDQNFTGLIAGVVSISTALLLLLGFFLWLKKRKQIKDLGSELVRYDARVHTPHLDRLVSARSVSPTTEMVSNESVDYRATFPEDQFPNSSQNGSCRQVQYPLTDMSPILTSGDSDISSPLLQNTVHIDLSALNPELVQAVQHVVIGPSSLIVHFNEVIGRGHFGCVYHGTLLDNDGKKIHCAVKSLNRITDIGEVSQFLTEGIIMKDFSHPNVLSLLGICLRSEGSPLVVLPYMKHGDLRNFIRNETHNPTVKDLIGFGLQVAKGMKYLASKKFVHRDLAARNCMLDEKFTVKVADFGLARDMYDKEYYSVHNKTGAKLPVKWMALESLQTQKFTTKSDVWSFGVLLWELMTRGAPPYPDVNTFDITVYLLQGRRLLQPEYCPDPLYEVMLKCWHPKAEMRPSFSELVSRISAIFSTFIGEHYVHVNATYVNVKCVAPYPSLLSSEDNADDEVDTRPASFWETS
Assignment: determine reported maximum MFI, fold over Isotype IgG4 background for the given binders.

Examples with answers:
binder	obs value
MH12 (antibody, IgG4, V domains shown) VH: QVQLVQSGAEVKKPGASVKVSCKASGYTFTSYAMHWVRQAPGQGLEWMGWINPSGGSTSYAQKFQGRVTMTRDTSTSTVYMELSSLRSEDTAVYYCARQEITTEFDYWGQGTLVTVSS VL: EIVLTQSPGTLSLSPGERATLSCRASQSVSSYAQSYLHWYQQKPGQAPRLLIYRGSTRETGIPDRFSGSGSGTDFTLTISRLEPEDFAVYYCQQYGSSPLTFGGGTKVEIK	> 10 fold
Grafted clone (Graft), IGHV1-46/IGKV3-20 CDR graft of 224G11 (antibody, human IgG4, V domains shown, also called VH graft/VL graft) VH: QVQLVQSGAEVKKPGASVKVSCKASGYIFTAYTMHWVRQAPGQGLEWMGWIKPNNGLANYAQKFQGRVTMTRDTSTSTVYMELSSLRSEDTAVYYCARSEITTEFDYWGQGTLVTVSS VL: EIVLTQSPGTLSLSPGERATLSCRASQSVDSYANSFLHWYQQKPGQAPRLLIYRASTRESGIPDRFSGSGSGTDFTLTISRLEPEDFAVYYCQQSKEDPLTFGGGTKVEIK	> 10 fold

Prompt: Please look up its maximum MFI, fold over Isotype IgG4 background: h224G11 (humanized 224G11) (antibody, human IgG4, V domains shown, also called Humanized h224G11; 224G11 IgG4(S228P)) VH: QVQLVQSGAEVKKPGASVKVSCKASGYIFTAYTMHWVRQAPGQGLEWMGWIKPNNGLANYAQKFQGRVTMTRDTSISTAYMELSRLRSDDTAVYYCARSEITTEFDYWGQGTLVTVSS VL: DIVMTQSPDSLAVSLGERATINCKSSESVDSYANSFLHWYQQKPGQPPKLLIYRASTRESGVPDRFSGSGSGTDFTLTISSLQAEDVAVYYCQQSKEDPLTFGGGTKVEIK
Response: > 10 fold

// provenance: patent US20260042850A1
